target: T1, ROR1 extracellular domain Fc-fusion, dimer (human, UniProt Q01973 30-406); test: SPR, immobilised ROR1 dimer, antibody injected, 1:1 model; apparent affinity
T1 construct: also called ROR1 dimer; hROR1 dimeric ECD-Fc fusion protein; not shown: Fc part
T1 sequence (Q01973 30-406): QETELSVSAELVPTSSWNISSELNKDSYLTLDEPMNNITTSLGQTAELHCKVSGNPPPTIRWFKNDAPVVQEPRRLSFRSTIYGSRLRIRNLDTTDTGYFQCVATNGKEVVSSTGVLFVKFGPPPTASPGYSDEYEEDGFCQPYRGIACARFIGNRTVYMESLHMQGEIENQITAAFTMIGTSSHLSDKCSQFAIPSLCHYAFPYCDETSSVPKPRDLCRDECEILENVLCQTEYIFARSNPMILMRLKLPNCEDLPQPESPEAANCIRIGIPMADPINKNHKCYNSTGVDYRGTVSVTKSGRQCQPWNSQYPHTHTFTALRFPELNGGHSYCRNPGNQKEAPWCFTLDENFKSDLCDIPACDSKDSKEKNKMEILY
pKd: −log10 of the molar value.
Rule: y for pKd not less than 9, n for anything less.

Here are 2 binders together with their reported answers.
Problem: Answer whether pKd of Antibody 601-70 (antibody, V domains shown) VH: EVQLVQSGAELKKPGSSVRVSCKTSGGSFKTHGISWVRQAPGQGLEWMGWINPNSGGALYVDNFQGRATMTRDTSINTAYMELRSLSSDDTAVYYCARGMADLIDVFDIWGQGTMVTVSS VL: TQPALTQPASVSGSPGQSITISCTGTSSDFGDYDYVSWYQQHPGKAPKLMIYDVSDRPSGVSNRFSGSKSGNTASLTISGLQAEDEADYFCSSFTTSSTLVFGGGTKLTVL is greater than or equal to 9.
Result: n

Problem: API: above_or_equal(metric=pKd, cutoff=9) for item Antibody 601-14 (antibody, V domains shown) VH: QVQLVQSGAEVKKPGESLKISCKDSGYSFTNYWLGWVRQMPGKGLEWMGIIYPGDSDTRYSPSFRGQVTISADKSISTAYLQWSSLKASDTAMYYCARLNLATHTAFDIWGQGTTVTVSS VL: QSVLTQPASVSGSPGQSITISCTGTSSDVGGYNYVSWYQQHPGKAPKLMIYDVSNRPSGVSNRFSGSKSGNTASLTISGLQAEDEADYYCSSYTSSSTLWVFGGGTKLTVLG
Result: y

// next entry
Problem: Assess whether reported pKd for Antibody 601-9 (antibody, V domains shown) VH: QLQLQESGPGVVKPSGTLSLTCTVSGGSISRSDGYWGWVRQPPGKGLEWIGSIYDTGTTYYSPSLKSRLIISVDTSKNQFSLTLNSVTAADTAVYYCASMGGLRSSSSDAFHTWGPGTMVTVSS VL: QSVLTQPPSVSVAPGETARITCGGTNIGSESVHWYQQRPGQAPVLVVYDDTDRPSGIPERFSGSNSGNTATLTISRVEAGDGADYYCQVWDSVSDRYVFGTGTKVTVL sits at 9 or higher.
Result: n
